# target: UniProt:P00772
# Sequence (P00772 27-266): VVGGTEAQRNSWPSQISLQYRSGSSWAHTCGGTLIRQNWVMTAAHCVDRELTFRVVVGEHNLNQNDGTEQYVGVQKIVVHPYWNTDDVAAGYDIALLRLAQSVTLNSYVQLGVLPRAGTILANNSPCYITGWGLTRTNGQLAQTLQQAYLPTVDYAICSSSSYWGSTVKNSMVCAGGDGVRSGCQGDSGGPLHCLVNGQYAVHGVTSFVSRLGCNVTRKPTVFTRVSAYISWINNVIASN
readout: pKi
# pKi is unitless: minus log10 of the molar concentration; print number only

Any idea what pKi was measured for Cc1cc(C)cc(Cn2c(SCC(=O)Nc3ccccc3Cl)nc3ccc(Cl)cc32)c1 ?
4.59
